Reference source for all entries: ChEMBL document CHEMBL3988442

Would you kindly list IC50 for each of these compounds?
assay: microbe, parasite or virus in culture; details: Mycobacterium tuberculosis, 96 h, read-out: pIC50 (converted)

Query block: Entry N[C@H]1CCCN(S(=O)(=O)c2ccc(C(=O)NCC(F)F)cc2)C1 : reported IC50 = ?
Result block: > 50.1 µM

Query block: Please give the result for CCc1noc(Cn2cnc3ccccc3c2=O)n1 too.
Result block: > 501 µM

Query block: Please give the result for CN(Cc1nc2ccccc2o1)C1CCCN(c2cccnn2)C1 (stereo not drawn) too.
Result block: > 50.1 µM

---

tested on: Plasmodium falciparum; test: Calibr Malaria Delayed Death Assay SOP; type: functional, organism-based; conditions: Plasmodium falciparum
Would you kindly list pIC50 for each of these molecules?
Lab note: report pIC50 as minus log10 of the concentration in molar units, number only.

Query block: Entry COc1ccc(CCC(=O)NCCN2CCC(c3cccs3)CC2)cc1 : reported pIC50 = ?
Result block: 6.11

Query block: Please give the result for CCCNc1cc(-c2c[nH]nc2C2CCN(C(=O)C3CCC3)C2)ccn1 (stereo not given) too.
Result block: 6.62

Query block: Please give the result for COc1cccc(OC)c1CN1CC(=O)N(c2ccc(C)cc2)CC1C (stereo not given) too.
Result block: 6.06

Query block: Please give the result for Cc1ccc(-c2ccc(C3CNCCO3)nc2)cc1.Cl (stereo not given) too.
Result block: 6.97

Query block: Please give the result for CN(C[C@H]1CN2CC[C@H]1C[C@@H]2CNC(=O)c1ccco1)c1ccccc1 too.
Result block: 5.95

Query block: Please give the result for CCN(Cc1c(F)cccc1Cl)c1cc(C2CCNCC2)nc(C)n1 too.
Result block: 6.31

Query block: Please give the result for O=C(C(CNCc1ccsc1)c1ccccc1)N1CCOCC1 (stereo not given) too.
Result block: 5.84

Query block: Please give the result for CC(C)(C)n1cc(C2=CCN(CCc3ccccn3)CC2)cn1 too.
Result block: 5.99

Query block: Please give the result for CCCn1ncc(-c2ccnc(NC3CC(C)(C)NC(C)(C)C3)n2)c1C too.
Result block: 6.64

Query block: Please give the result for O=C(Cn1ccc2ccc(Br)cc21)NC[C@@H]1CCCN2CCCC[C@H]12 too.
Result block: 5.89

Query block: Please give the result for O=C(CN1CCCC(c2ccn[nH]2)C1)Nc1nc2c(s1)CCCC2 (stereo not given) too.
Result block: 6.61

Query block: Please give the result for CC(=O)N(c1ccc(F)cc1)c1nc(CN2CCCC2C(C)C)cs1 (stereo not given) too.
Result block: 6.32

Query block: Please give the result for CN(CCO)CC1COCCN1C(=O)C1(c2cccs2)CCCC1.O=CO (stereo not given) too.
Result block: 6.24

Query block: Please give the result for COc1cc(CNCC(O)c2cccc(F)c2)cc2c1OCO2.Cl (stereo not given) too.
Result block: 6.14

Query block: Please give the result for COc1cccc(CN(C)Cc2[nH]c3ccccc3c2C)c1O too.
Result block: 6.51

Query block: Please give the result for Cc1ccc(S(=O)(=O)N2CCC(N3CCCCC3)CC2)cc1C too.
Result block: 5.67

Query block: Please give the result for CC(=O)N(c1ccc(C)cc1)c1nc(CN2CCCC(C)C2)cs1 (stereo not given) too.
Result block: 5.79

Query block: Please give the result for COc1ccc(-c2ccccc2CCN)c(OC)c1OC too.
Result block: 6.12

Query block: Please give the result for Cc1cccc(C)c1Nc1noc2c1CN(C(=O)c1cn(C)cn1)CC2 too.
Result block: 6.72

Query block: Please give the result for CCC[C@H]1CN(S(=O)(=O)c2ccc(-c3c(C)noc3C)s2)C[C@@H]1N too.
Result block: 6.10
